System: BT-549 breast
Assay: NCI tumour cell line growth inhibition, 48 h
Quantity Name: TGI (µM)
One number for each entry, in µM.

Record excerpt, results attached:
In [3]: df
Out[3]:
                                   molecule   assay_target  numeric_result
0  N#CSCC1CC(O)(c2ccccc2)C(c2ccccc2)C(c2ccc(F)cc2)O1 (stereo not drawn)  BT-549 breast            5.39
1  COC(=O)c1ccc(NCC2=CC(=O)c3ccccc3C2=O)cc1  BT-549 breast            42.2

Would you mind giving TGI for every molecule in the list below?
1. Cc1ccc(-c2c(C#N)c(S)n(NS(=O)(=O)c3ccccc3)c(=O)c2C#N)cc1
2. Cc1cc(N/N=C/c2nc(-c3ccccc3)oc2C)c2cc(Cl)ccc2n1
3. O=C(N/N=C/c1ccc(O)cc1O)c1ccc(Nc2ccnc(C(F)(F)F)c2)cc1
4. CCc1nc2ccc(Cc3ccc(C(=O)NO)cc3)cc2c(=O)n1CCc1ccccc1
5. CCOC(=O)NNC1(SC)NC(=O)c2c(cc(Cl)oc2=O)O1 (stereo not drawn)
6. CC1(C)N=C(N)N=C(N)N1c1ccc(CCCCc2ccc(Cl)cc2Cl)cc1
7. COC[C@H]1OC(=O)c2coc3c2[C@@]1(C)C1=C(C3=O)[C@@H]2CCC(=O)[C@@]2(C)C[C@H]1OC(C)=O

*A*
[73.3, 29.3, 79.9, 4.79, 12.2, 6.3, 12.7]

====

Tested on: MDA-MB-231 breast
Experiment: NCI tumour cell line growth inhibition, 48 h
Classification field: T = TGI at or over 8 µM; F = TGI under 8 µM.

Below are worked cases with known answers.
                                   molecule  group_label
0  CCOC(=O)C(Cc1c[nH]c2cc([N+](=O)[O-])ccc12)(NC(C)=O)C(=O)OCC            T
1          O=C(COC(=O)c1ccccc1)c1ccc(Br)cc1            T

*Q* Record CCC(/C=C/c1ccccc1)=N\NC(=S)N/N=C(/C=C/c1ccccc1)CC ; criterion: TGI no lower than 8 µM. Met?
*A* T

*Q* Record CCOc1cc2ncc(C#N)c(Nc3ccc(F)c(Cl)c3)c2cc1NC(=O)/C=C/CN(C)C ; criterion: TGI no lower than 8 µM. Met?
*A* F

*Q* Record Cc1cc(-c2nc3ccc(O)cc3s2)ccc1N ; criterion: TGI no lower than 8 µM. Met?
*A* T

*Q* Record Cc1cc2c(C(N)=O)cccc2n1-c1nc2c(c(NCc3ccccc3)n1)CCCN2 ; criterion: TGI no lower than 8 µM. Met?
*A* F

*Q* Record CC1(C)OC[C@@]2([C@@H]3CC[C@@H](C3)C2(C)C)N1O ; criterion: TGI no lower than 8 µM. Met?
*A* T

====

Task for the reader: assign each of the following compounds its reported TGI.
Tested on: PC-3 prostate
Assay: NCI tumour cell line growth inhibition, 48 h

Record excerpt, results attached:
>>> print(df.to_string())
                                   compound  quantity_name    result
0  O=C(c1cc(-c2cc3c(cc2C(=O)N2Cc4ccccc4C[C@H]2CN2CCOCC2)OCO3)n2c1CCCC2)N(c1ccccc1)c1ccc(O)cc1            TGI  > 100 µM
1  CCOC(=O)c1ccc(Nc2nc3ccc(C(F)(F)F)cc3nc2-c2ccccc2)cc1            TGI  > 100 µM
2  C=C1C(=O)O[C@@H]2C[C@@H](C)[C@@H]3[C@@H](OC4OC(COC(C)=O)C(O)C(O)C4O)CC(=O)[C@@]3(C)C[C@H]12 (stereo partly drawn)            TGI   23.7 µM
3  CCOC(=O)NC(N(C)C(C(C)C)P(=O)(OCC)OCC)(C(F)(F)F)C(F)(F)F (stereo not drawn)            TGI  > 100 µM
4  Cl.Fc1c[c-]c(-c2ccccn2)c(F)c1.[Pt].c1ccc([PH+](CC[PH+](c2ccccc2)c2ccccc2)c2ccccc2)cc1            TGI   1.09 µM
5  N#Cc1nsnc1-c1nc(-c2nsnc2C#N)nc(-c2nsnc2C#N)n1            TGI  > 100 µM

Would you mind giving TGI for every compound in the list below?
1. Cc1[nH]n(-c2nc(O)c(C)c(=O)[nH]2)c(=O)c1CCO
2. O=C(/C=C/c1ccc(Cl)c(Cl)c1)CCN1CCN(CCC(=O)/C=C/c2ccc(Cl)c(Cl)c2)CC1

*A*
1: > 100 µM; 2: 57.1 µM

Reference source for all entries: PubChem BioAssay (NCI)
